# Experiment Notes: viability loss in HepG2 hepatoma cells – cell-based, cherry-picks, set 5, cytotoxicity control, dose response (AID 1053118)
# Experimental Parameters: ATP luminescence, 72 h; series mostly up to 26 µM
Results with a measured potency or affinity are listed apart. The source made the active and inactive calls.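 How the source made its calls: active means fitted half-maximal concentration for ATP signal loss at most twice the top valid dose; inconclusive means flat curve between -70 and -30%, or an invalid fit; inactive means flat within ±30%, wrong direction, or potency past limit.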
Quantity Kind: outcome

Completed entries (count: 5):
>>> result("O=C(Nc1nc(-c2ccncc2)cs1)C1COc2ccccc2O1 (stereo unspecified)")
"inactive"
>>> result("C[C@H]1CN([C@@H](C)CO)C(=O)c2cc(-c3ccccc3)cnc2O[C@@H]1CN(C)C(=O)c1cccc(F)c1")
"inactive"
>>> result("O=S(=O)(c1ccccc1F)N1CC[C@@H]2[C@H](CO)Nc3ccc(-c4cccc(F)c4)cc3[C@@H]21")
"inactive"
>>> result("O=C(Nc1ccccc1F)N1C[C@H]2[C@@H](c3ccccc31)[C@@H](CO)N2C(=O)C1CC1")
"inactive"
>>> result("COc1cccc(-c2ccc3c(c2)[C@H]2[C@H](CCN2S(=O)(=O)c2cccc(OC)c2)[C@H](CO)N3)c1")
"inactive"

Requested read-out: outcome. Entry: `C[C@@H]1CN([C@H](C)CO)C(=O)c2cc(NC(=O)CCCN(C)C)ccc2O[C@H]1CN(C)Cc1ccc(-c2ccccc2)cc1`
inactive

Reference for the values: PubChem BioAssay AID1053118
